Provenance of the data: patent US20040038965A1

- Subject of test: human Cathepsin K (Homo sapiens, UniProt P43235)
- Sequence (P43235 115-329): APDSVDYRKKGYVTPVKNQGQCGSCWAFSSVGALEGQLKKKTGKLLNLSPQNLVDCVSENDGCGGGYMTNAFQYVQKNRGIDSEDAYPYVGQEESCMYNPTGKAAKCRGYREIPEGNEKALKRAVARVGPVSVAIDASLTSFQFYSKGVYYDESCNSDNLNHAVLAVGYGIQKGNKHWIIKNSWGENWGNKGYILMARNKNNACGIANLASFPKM
- Protocol description: Cathepsin K inhibition, fluorogenic peptide substrate, progress curve method
- Measurement setup: human recombinant enzyme, pH 5.5
Assign pKi to each entry below.
Just the number, please; pKi means minus log10 of the concentration in mol/L.

The reported pKi of the compound O=C(NC1(C(=O)N[C@H]2CCCN(S(=O)(=O)c3ccccn3)CC2=O)CCCCC1)c1cc2ccccc2o1 [Example 1] was 8.85

Measured pKi, O=C(NC1(C(=O)N[C@H]2CCCN(S(=O)(=O)c3ccccn3)CC2=O)CCCCC1)c1cc2sccc2s1 (racemic) [Example 2] : 9.24

get_value(item= C[C@@H]1CC[C@H](NC(=O)C2(NC(=O)c3cc4sccc4s3)CCCCC2)C(=O)CN1S(=O)(=O)c1ccccn1 [Example 5] , readout=pKi) returns 9.52
